ASSAYED TARGET: Peregrin (Homo sapiens)
STATED CONDITIONS: Compound concentration 20.0 uM, Protein concentration 2.0 uM, Result type QC Liability
Recorded ΔTm determines the group label, using 0 (below -2 °C), 1 (-2 °C to below -1 °C), 2 (-1 °C or more)

Illustrative cases are given below, each with its answer.
COMPOUND | CLASS LABEL
CN(C(=O)c1ccccc1)c1ccc2c(c1)[nH]/c(=N\C(=O)c1ccc(Br)s1)n2CCC(N)=O | 0
Cc1ccc(C(=O)Nc2cc(N3CCN(C)CC3)cc(C(F)(F)F)c2)cc1-n1cc(-c2cnn(C)c2C)nn1 | 2
CCC(=O)N[C@@H]1CC[C@H](C(=O)N(C)c2ccc(-c3nc4ccccc4o3)cc2)C1 | 1

Req: Pick a category. Item: `CN(C)[C@H]1CC[C@H](Nc2ncc3ncnc(Nc4ccc(F)c(Cl)c4)c3n2)CC1`
Resp: 2

Req: Pick a category. Item: `N=C(N)NCCC[C@H](NC(=O)C(c1ccccc1)c1ccccc1)C(=O)NCc1ccc(CNC(N)=O)cc1`
Resp: 1

Req: Pick a category. Item: `C=CC(=O)Nc1cccc(C(=O)Nc2ccc(Nc3cc(-c4c(-c5ccc(F)cc5)nc(SC)n4C)ccn3)cc2)c1`
Resp: 2

Req: Pick a category. Item: `CN1C(=O)c2ccccc2N(C)c2nc(Nc3cnn(C4CCNCC4)c3)ncc21`
Resp: 2

Req: Pick a category. Item: `CNc1oc(-c2cccc3ccccc23)nc1C#N`
Resp: 0

Req: Pick a category. Item: `N=C(N)Nc1cc(C2CCNCC2)cc(C(F)(F)F)c1`
Resp: 0

Req: Pick a category. Item: `Nc1ncnc2c1ccn2[C@@H]1O[C@H]([C@@H](O)c2ccccc2)[C@@H](O)[C@H]1O`
Resp: 1

Req: Pick a category. Item: `Cc1cc(SCc2sc(-c3ccc(C(F)(F)F)cc3)nc2C)ccc1OCC(=O)O`
Resp: 1

Req: Pick a category. Item: `CN(CCCCCCC1=C(c2cc(F)cc(F)c2)CCCc2cc(O)ccc21)CCCCS(=O)(=O)CCCC(F)(F)F`
Resp: 1

Req: Pick a category. Item: `Cc1cn([C@H](C)CC#N)c(=O)c2cc(Cn3nc(C(F)F)cc3Cl)nn12`
Resp: 1

Req: Pick a category. Item: `Cc1cc([N+](=O)[O-])c(NS(=O)(=O)c2cccc(C(=O)O)c2)cc1-c1cccnc1`
Resp: 2

Req: Pick a category. Item: `CCC(=O)N[C@H]1CC[C@@H](C(=O)N(C)c2ccc(-c3nc4ccccc4o3)cc2)C1`
Resp: 0

Req: Pick a category. Item: COc1cc(O)c(C(CC(=O)N2C[C@H](C)C[C@H](C)C2)c2ccc3c(c2)OCO3)c(OC)c1 (some centres undefined)
Resp: 2

Req: Pick a category. Item: `Cn1cc(-c2ccc(-c3cncc(Cl)c3N3CCC4(CCNC4=O)CC3)cc2)cn1`
Resp: 1

* * *

ΔTm listing for selected molecules.
ASSAYED TARGET: Peregrin (Homo sapiens) (UniProt P55201)
Sequence (P55201 whole entry): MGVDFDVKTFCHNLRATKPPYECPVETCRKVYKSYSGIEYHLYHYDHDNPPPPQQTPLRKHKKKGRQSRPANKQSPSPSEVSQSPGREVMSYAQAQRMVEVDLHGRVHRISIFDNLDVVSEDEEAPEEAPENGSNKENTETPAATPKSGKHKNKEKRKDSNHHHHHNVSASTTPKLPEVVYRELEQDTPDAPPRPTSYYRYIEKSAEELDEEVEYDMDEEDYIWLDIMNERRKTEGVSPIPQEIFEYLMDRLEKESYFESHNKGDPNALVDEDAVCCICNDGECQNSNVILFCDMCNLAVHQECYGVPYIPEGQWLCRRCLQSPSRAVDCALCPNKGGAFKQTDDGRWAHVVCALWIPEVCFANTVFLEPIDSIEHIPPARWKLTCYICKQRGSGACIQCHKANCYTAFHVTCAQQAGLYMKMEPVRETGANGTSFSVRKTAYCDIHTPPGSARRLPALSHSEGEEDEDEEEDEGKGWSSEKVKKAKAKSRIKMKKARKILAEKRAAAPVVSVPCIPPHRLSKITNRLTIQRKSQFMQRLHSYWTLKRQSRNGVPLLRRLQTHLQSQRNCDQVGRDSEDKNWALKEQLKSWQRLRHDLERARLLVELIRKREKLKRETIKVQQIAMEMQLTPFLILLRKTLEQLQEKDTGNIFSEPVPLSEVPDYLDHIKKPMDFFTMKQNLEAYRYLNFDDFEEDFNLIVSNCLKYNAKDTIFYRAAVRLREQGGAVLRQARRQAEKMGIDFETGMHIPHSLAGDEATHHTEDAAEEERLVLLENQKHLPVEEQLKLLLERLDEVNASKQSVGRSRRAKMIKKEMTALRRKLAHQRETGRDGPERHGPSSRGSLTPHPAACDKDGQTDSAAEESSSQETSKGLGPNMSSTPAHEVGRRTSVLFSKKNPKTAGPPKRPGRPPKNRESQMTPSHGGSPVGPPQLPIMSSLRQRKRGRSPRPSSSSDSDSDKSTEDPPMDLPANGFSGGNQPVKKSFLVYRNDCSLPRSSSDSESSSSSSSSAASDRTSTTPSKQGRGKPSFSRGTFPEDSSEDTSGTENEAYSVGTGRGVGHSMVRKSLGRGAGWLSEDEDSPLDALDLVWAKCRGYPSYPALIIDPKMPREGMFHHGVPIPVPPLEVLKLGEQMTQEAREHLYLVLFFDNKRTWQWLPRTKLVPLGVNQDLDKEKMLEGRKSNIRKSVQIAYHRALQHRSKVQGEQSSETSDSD
STATED CONDITIONS: Compound concentration 20.0 uM, Protein concentration 2.0 uM, Result type QC Liability
A complete answer gives the number followed by the unit.

SMI | VALUE TYPE | OBSERVED VALUE
CCNC1=N[C@@H]2[C@@H](O)[C@H](O)[C@@H](CO)O[C@@H]2S1 | ΔTm | 0.02 °C

Req: // returns reported ΔTm for input `Cn1c(C2(NC(=O)c3ccc(NCC4CCCCC4)nc3)CCC2)nc2ccc(/C=C/C(=O)O)cc21`
Resp: -2.12 °C

Req: // returns reported ΔTm for input `Cc1c(CCC(=O)O)cccc1NC(=O)[C@@H](c1ccc(-c2cncc(Cl)c2)c(F)c1)C1CCCC1`
Resp: -4.03 °C

Req: // returns reported ΔTm for input `Clc1cccc(Nc2nccc(NCCCN3CCOCC3)n2)c1`
Resp: -1.42 °C

Req: // returns reported ΔTm for input `Cc1[nH]c2c(N3CCCCC3)c(-c3ccccc3)nn2c(=O)c1-c1ccc(O)cc1`
Resp: -2.87 °C

* * *

ASSAYED TARGET: Fibroblast growth factor receptor 3 (Homo sapiens) (UniProt P22607)
Sequence (P22607 23-806 limits assumed): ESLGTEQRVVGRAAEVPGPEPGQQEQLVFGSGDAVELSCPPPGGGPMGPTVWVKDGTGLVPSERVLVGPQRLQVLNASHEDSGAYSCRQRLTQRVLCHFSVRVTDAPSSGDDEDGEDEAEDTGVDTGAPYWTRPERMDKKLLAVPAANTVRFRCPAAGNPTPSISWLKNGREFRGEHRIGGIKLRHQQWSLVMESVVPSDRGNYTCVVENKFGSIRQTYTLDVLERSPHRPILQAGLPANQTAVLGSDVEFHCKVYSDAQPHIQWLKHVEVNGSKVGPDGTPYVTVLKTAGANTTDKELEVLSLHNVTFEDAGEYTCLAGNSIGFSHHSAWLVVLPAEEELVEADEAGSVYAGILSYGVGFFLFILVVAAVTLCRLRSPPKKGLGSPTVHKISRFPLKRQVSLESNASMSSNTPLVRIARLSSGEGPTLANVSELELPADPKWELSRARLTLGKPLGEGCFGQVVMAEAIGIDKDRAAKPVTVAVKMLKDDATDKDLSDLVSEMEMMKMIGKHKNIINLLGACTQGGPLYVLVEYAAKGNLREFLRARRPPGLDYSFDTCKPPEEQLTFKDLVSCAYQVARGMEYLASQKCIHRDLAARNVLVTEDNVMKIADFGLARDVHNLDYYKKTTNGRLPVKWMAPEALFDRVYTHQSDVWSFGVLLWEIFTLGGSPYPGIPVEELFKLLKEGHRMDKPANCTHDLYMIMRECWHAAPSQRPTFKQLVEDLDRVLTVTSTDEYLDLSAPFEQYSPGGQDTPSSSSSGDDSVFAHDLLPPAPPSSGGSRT
STATED CONDITIONS: Compound concentration 20.0 uM, Protein concentration 2.0 uM, Result type QC Liability
Description: Thermal Shift Assay. Domain: start/stop: P449-E759
ΔTm listing for selected compounds.
Supply the numeric figure in °C, leaving out any unit text.

Req: // returns reported ΔTm for input CC1CN(CC(=O)N2CC(C)(C)c3nc(CO)c(Cc4ccc(F)cc4)cc32)C(CN2CCOCC2C)CN1 (stereo not given)
Resp: 0.81

Req: // returns reported ΔTm for input `CN(CC(=O)Nc1ccc(F)c(F)c1F)C(=O)c1ccc2c(c1)OCCO2`
Resp: 0.6

* * *

ASSAYED TARGET: UniProt:P22607
STATED CONDITIONS: Compound concentration 20.0 uM, Protein concentration 2.0 uM, Result type QC Liability
VALUE TYPE: ΔTm (°C)
Supply the numeric figure in °C, leaving out any unit text.

MOLECULE | ASSAYED TARGET | ΔTm (°C)
C1=Cc2ccccc2C(=C2CCN(CCCCc3nnn[nH]3)CC2)c2ccccc21 | UniProt:P22607 | 0.36

Req: // lookup ΔTm | system=UniProt:P22607 | key= `Cn1cc(NC(=O)c2ccc3nc4n(c3c2)CCCNC4=O)nc1C(=O)NC1CCCC1`
Resp: 1.76

Req: // lookup ΔTm | system=UniProt:P22607 | key= `c1ccc2c(-c3coc4cc(-c5ccc(N6CCNCC6)cc5)cnc34)ccnc2c1`
Resp: 1.12

Req: // lookup ΔTm | system=UniProt:P22607 | key= `COc1cc(C(=O)NCCOCCOCCOCC(=O)N[C@H](C(=O)N2C[C@@H](O)C[C@H]2C(=O)NCc2ccc(-c3scnc3C)cc2)C(C)(C)C)ccc1Nc1ncc(C(F)(F)F)c(Oc2cccc3c2C(=O)CC3)n1`
Resp: 1.69

* * *

ASSAYED TARGET: Peregrin (Homo sapiens)
STATED CONDITIONS: Compound concentration 20.0 uM, Protein concentration 2.0 uM, Result type QC Liability
VALUE TYPE: ΔTm (°C)
Supply the numeric figure in °C, leaving out any unit text.

// worked examples, ΔTm included
MOLECULE | ASSAYED TARGET | READING UNIT | ΔTm
O=C(NC1CCNCC1)c1n[nH]cc1NC(=O)c1c(Cl)cccc1Cl | Peregrin (Homo sapiens) | °C | -1.28
CC(C)(C)c1cnc(CSc2cnc(NC(=O)C3CCN(CC(=O)NCCOCCOCCOCCNc4cccc5c4C(=O)N(C4CCC(=O)NC4=O)C5=O)CC3)s2)o1 (stereo unspecified) | Peregrin (Homo sapiens) | °C | -0.35
CNc1nc(-c2cc(C(=O)N3CCN(Cc4ccc(Cl)cc4)CC3)c(Cl)cn2)cs1 | Peregrin (Homo sapiens) | °C | -1.62

Req: // returns reported ΔTm for input `CC(C)(c1ccc(OCc2cccc(COc3ccc(C(=N)N)cc3)c2)cc1)c1ccc(O[C@@H]2O[C@H](C(=O)O)[C@@H](O)[C@H](O)[C@H]2O)cc1`
Resp: -6.79

Req: // returns reported ΔTm for input `COc1ccccc1Nc1nc(-c2nn(Cc3c(F)cc(OCCCO)cc3F)c3ccccc23)ncc1OC`
Resp: -1.09

Req: // returns reported ΔTm for input `CC[C@H](NC(=O)[C@H](C)NC)C(=O)N1C[C@@H](O)C[C@H]1Cc1c(-c2[nH]c3cc(F)ccc3c2C[C@@H]2C[C@H](O)CN2C(=O)[C@H](CC)NC(=O)[C@H](C)NC)[nH]c2cc(F)ccc12`
Resp: -1.75

Req: // returns reported ΔTm for input `COCCc1ccc(-c2c(C)nc3c(N4CCOCC4)ccnn23)cn1`
Resp: -2.19

* * *

ASSAYED TARGET: Peregrin (Homo sapiens) (UniProt P55201)
STATED CONDITIONS: Compound concentration 20.0 uM, Protein concentration 2.0 uM, Result type QC Liability
ΔTm listing for selected compounds.
Supply the numeric figure in °C, leaving out any unit text.

COMPOUND | OBSERVED VALUE
CCCCC[C@H](O)/C=C/[C@H]1[C@H](O)CC(=O)[C@@H]1CCCCCCC(=O)O | -2.24

Req: // returns reported ΔTm for input `CCOC(=O)c1ccc(CN(Cc2ccc(-c3cccc(S(C)(=O)=O)c3)cc2)S(=O)(=O)c2c(C)cc(C)cc2C)o1`
Resp: -3.02

Req: // returns reported ΔTm for input `CN[C@@H](C)C(=O)N[C@H](C(=O)N1CCC[C@H]1C(=O)N[C@@H]1CCCc2ccccc21)C1CCCCC1`
Resp: -1.87

* * *

ASSAYED TARGET: Fibroblast growth factor receptor 3 (Homo sapiens)
STATED CONDITIONS: Compound concentration 20.0 uM, Protein concentration 2.0 uM, Result type QC Liability
VALUE TYPE: ΔTm
A complete answer gives the number followed by the unit.

// worked examples, ΔTm included
SMI | ΔTm
O=C(O)c1ccc(CN2C[C@@H]3C[C@H]2CN3Cc2ccc(Oc3ccc(-c4ncco4)cc3)cc2)cc1 | 0.44 °C
Cc1csc(S(=O)(=O)N(CC(C)C)c2cc3c(cc2OCc2ccc(C(=O)O)cc2)CCC3)n1 | 0.12 °C
O=C(O)c1cc(F)c2nc(N3[C@@H]4CC[C@H]3C[C@@H](OCc3c(-c5ccccc5OC(F)(F)F)noc3C3CC3)C4)sc2c1 | -3.83 °C

Req: // returns reported ΔTm for input `Cc1ccc(-c2cn3nc(C(=O)NC4(c5ccc(F)cc5)CN(C)C4)c(C(C)C)c3c(=O)[nH]2)cc1C`
Resp: 0.62 °C
